# Assay System: Ribosomal protein S6 kinase alpha-3 (Homo sapiens) (UniProt P51812)
# Sequence (P51812 whole entry): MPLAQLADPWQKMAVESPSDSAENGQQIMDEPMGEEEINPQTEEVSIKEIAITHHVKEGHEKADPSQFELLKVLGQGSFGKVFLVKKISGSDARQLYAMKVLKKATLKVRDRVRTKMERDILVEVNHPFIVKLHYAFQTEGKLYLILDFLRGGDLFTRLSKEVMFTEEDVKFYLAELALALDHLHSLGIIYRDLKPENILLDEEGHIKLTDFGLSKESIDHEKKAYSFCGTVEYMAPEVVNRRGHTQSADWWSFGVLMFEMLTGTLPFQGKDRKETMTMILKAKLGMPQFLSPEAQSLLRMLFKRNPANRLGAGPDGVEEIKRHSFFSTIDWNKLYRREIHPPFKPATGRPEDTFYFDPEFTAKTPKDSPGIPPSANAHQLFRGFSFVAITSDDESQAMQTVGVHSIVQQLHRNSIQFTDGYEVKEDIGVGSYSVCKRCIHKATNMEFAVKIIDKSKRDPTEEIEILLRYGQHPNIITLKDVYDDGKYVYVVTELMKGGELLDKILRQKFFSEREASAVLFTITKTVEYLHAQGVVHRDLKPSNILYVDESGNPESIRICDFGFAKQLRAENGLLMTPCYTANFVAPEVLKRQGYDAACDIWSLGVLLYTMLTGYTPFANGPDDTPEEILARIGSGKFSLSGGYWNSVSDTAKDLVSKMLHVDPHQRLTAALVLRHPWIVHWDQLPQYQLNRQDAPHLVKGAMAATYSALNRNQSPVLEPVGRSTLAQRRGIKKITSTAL
# Reported Conditions: at 1 µM
# Description: GSK_PKIS: RSK2 mean inhibition at 1 uM [Nanosyn]
Quick reference: inhibition of the listed items.

{"columns": ["Compound", "inhibition / %"],
 "data": [
  ["N#Cc1c(NC(=O)CN2CCOCC2)sc2c1CCCC2", 0.9],
  ["COc1cc(Nc2nccc(Nc3ccc4c(C)n[nH]c4c3)n2)cc(OC)c1OC", 0.03],
  ["COc1cc(N2CCN(C(C)C)CC2)ccc1Nc1nc(Nc2ccc(F)cc2C(N)=O)c2cc[nH]c2n1", 57],
  ["CCN(CC)S(=O)(=O)c1ccc(OC)c(Nc2ncc(-c3ccccc3)o2)c1", -0.03],
  ["Nc1nc(-c2cccc(Cl)c2)c(-c2ccc3ncccc3n2)s1", 4.8],
  ["COc1ccc2c(-c3ccnc(Nc4cccc(OC(F)(F)F)c4)n3)cnn2n1", 1.1],
  ["COc1cccc(-n2ncc3c(N/N=C/c4ccc(F)cc4)ncnc32)c1", 2.74],
  ["c1ccc(-c2nc3n(c2-c2ccc4c(c2)OCO4)CCC3)nc1", 5.78],
  ["CN1CCC(n2cnc(-c3ccc(F)cc3)c2-c2ccnc(N)n2)CC1", 2.82],
  ["c1cc(-c2cnn3nc(N4CCOCC4)ccc23)nc(NC2CC2)n1", 6.33],
  ["CCc1nn2ncccc2c1-c1ccnc(NC2CC2)n1", 0.91],
  ["CCn1c(-c2nonc2N)nc2ccccc21", 36.2],
  ["Cc1ccc(O)cc1Nc1ccnc2cc(-c3ccccn3)ccc12", -0.99],
  ["NS(=O)(=O)c1ccc(N/N=C2\\C(=O)Nc3ccc4ncccc4c32)cc1", 39.4],
  ["Fc1ccc(-c2nn3ncccc3c2-c2ccnc(Nc3ccc4c(c3)OCCO4)n2)cc1", 1.36],
  ["CCN1CCC(CC(=O)Nc2n[nH]c3nnc(-c4cccc(F)c4F)cc23)CC1", 3.53],
  ["COc1ccc(-c2oc3ncnc(N)c3c2-c2ccc(NC(=O)Nc3cc(C(F)(F)F)ccc3F)cc2)cc1", 34.4],
  ["COc1ccc2[nH]c3c4[nH]c5ccc(OC)cc5c4c4c(c3c2c1)C(=O)NC4=O", 80.1],
  ["COc1cc2ncn(-c3cc(OCc4ccccc4C(F)(F)F)c(C(=O)N(C)C)s3)c2cc1OC", 0.59],
  ["NC(=O)c1sc(-n2cnc3ccc(C(F)(F)F)cc32)cc1OCc1ccccc1Br", 2.48],
  ["COc1ccc(-c2cc3c(N)ncnc3o2)cc1", 2.31],
  ["c1ccc(COc2ccc(Nc3ncnc4ccc(-c5ccco5)cc34)cc2)cc1", 2.71],
  ["Nc1ncc(-c2cccc(S(N)(=O)=O)c2)c2scc(-c3ccc(F)c(Cl)c3)c12", 2.98],
  ["CNC(=O)c1cccc(C#Cc2cncnc2Nc2ccc(OCc3cccc(F)c3)c(Cl)c2)c1", 0.62],
  ["Fc1ccc(-c2nn3ccccc3c2-c2ccncc2)cc1", 3.24],
  ["CCCN1CCC(c2ccc(Nc3nc(Nc4cc(F)ccc4C(N)=O)c4cc[nH]c4n3)c(OC)c2)CC1", 66.8],
  ["O=S(=O)(CCNCc1ccc(-c2ccc3ncnc(Nc4ccc(OCc5cccc(F)c5)c(Cl)c4)c3c2)o1)c1ccccc1", 0.8],
  ["CN1CCC(n2cnc(-c3ccc(F)cc3)c2-c2ccnc(Nc3ccccc3)n2)CC1", 3.9],
  ["CN(C)CCOc1ccc(-c2nc(-c3ccncc3)c(-c3ccc4c(c3)CC/C4=N\\O)[nH]2)cc1", 2],
  ["NS(=O)(=O)c1ccc(Nc2ncc(-c3ccccc3)o2)cc1", 4.01],
  ["COC(=O)Nc1nc2ccc(Oc3ccc(NC(=O)Nc4cccc(Cl)c4)cc3)cc2[nH]1", 1.37],
  ["CCCN(CCS(C)(=O)=O)Cc1ccc(-c2ccc3ncnc(Nc4ccc(OCc5cccc(F)c5)c(Cl)c4)c3c2)o1", 0.24],
  ["COc1cc2c(cc1Nc1nc(Nc3ccsc3C(N)=O)c3cc[nH]c3n1)N(C(=O)CN(C)C)CCC2(C)C", 50.7],
  ["Fc1cccc(COc2ccc(Nc3ncnc4sc(-c5ccco5)cc34)cc2Cl)c1", 3.12],
  ["CCOc1ccc2c(-c3ccnc(Nc4cccc(C(F)(F)F)c4)n3)cnn2n1", 1.88],
  ["CCn1c(-c2nonc2N)nc2c(C#CC(C)(C)O)nc(OC[C@H](N)c3ccccc3)cc21", 14.5],
  ["CC1=C(C(=O)Nc2cc(Cl)c3[nH]ncc3c2)C(c2ccc(C(F)(F)F)cc2)CC(=O)N1 (stereo unspecified)", 65.5],
  ["COC(=O)Nc1nc2ccc(S(=O)(=O)c3ccc(NC(=O)Nc4cc(C(F)(F)F)ccc4F)cc3)cc2[nH]1", 0.41],
  ["N#Cc1c(NC(=O)c2ccc(F)cc2)sc2c1CCCC2", 2.51],
  ["CCn1c(-c2nonc2N)nc2c(C#CC(C)(C)O)ncc(OC3CCNCC3)c21", 14.3],
  ["Cc1cccc2c1NC(=O)/C2=N\\Nc1ccc(S(N)(=O)=O)cc1", 1.26]
]}

Just for reference, ChEMBL document CHEMBL1961873 is where these values come from.
